So I've got a bunch of binders here, and I need their pKd values.
Molecular target: T1, rGyr_hel (reverse gyrase helicase-like domain) (Thermotoga maritima, UniProt O51934 59-541)
T1 sequence: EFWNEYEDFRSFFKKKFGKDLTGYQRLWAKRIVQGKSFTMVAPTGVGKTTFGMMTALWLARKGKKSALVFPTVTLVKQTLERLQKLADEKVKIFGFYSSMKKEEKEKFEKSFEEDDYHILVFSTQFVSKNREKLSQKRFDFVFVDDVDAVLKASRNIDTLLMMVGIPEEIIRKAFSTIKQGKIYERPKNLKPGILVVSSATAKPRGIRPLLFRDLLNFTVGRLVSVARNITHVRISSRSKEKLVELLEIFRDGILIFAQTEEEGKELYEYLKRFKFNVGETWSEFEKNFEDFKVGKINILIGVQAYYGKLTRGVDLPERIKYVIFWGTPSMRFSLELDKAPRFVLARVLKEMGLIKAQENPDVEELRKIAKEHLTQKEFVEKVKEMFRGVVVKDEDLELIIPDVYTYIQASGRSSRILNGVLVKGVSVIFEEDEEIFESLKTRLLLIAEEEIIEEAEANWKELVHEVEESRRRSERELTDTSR
Assay: fluorescence anisotropy
Give bare numbers, as −log10 of the molar value.

60 bp dsDNA (dsDNA) DNA 1: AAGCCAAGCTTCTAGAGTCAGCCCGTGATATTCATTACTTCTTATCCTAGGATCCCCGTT DNA 2: AACGGGGATCCTAGGATAAGAAGTAATGAATATCACGGGCTGACTCTAGAAGCTTGGCTT :: 5.41

Now for a further binder.
Give pKd for 60-base ssDNA (ssDNA) DNA: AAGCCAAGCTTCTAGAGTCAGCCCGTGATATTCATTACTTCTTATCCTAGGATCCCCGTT
6.70
